Biological target: T. brucei PKA (Trypanosoma brucei brucei)
Assay: In vivo PKA reporter assay (VASP Ser-157 phosphorylation, western blot)
Assay type: cell-based
Conditions: read-out: EC50 in vivo PKA assay; VASP reporter, 15 min treatment; mean ± SD
pEC50: −log10 of the molar value.

>  <Sample Smiles>
OCCN(CCO)c1nc(N2CCCCC2)c2nc(N(CCO)CCO)nc(N3CCCCC3)c2n1

>  <pEC50>
4.65

$$$$
>  <Sample Smiles>
Nc1ncnc2c1c(I)cn2[C@@H]1O[C@H](CO)[C@@H](O)[C@H]1O

>  <pEC50>
6.41

$$$$
>  <Sample Smiles>
N#Cc1cn([C@@H]2O[C@H](CO)[C@@H](O)[C@H]2O)c2ncnc(O)c12

>  <pEC50>
6.08

$$$$
>  <Sample Smiles>
Nc1ncnc2c1c(Br)cn2[C@@H]1O[C@H](CO)[C@@H](O)[C@H]1O

>  <pEC50>
6.20

$$$$
>  <Sample Smiles>
NC(=O)c1cn([C@@H]2O[C@H](CO)[C@@H](O)[C@H]2O)c2ncnc(N)c12

>  <pEC50>
4.41

$$$$

----------
Catalogue of Kd readings, one per entry.
Target: T. brucei PKAR(199–499) (Trypanosoma brucei, UniProt Q9GU80)
Sequence (Q9GU80 entry or part of it): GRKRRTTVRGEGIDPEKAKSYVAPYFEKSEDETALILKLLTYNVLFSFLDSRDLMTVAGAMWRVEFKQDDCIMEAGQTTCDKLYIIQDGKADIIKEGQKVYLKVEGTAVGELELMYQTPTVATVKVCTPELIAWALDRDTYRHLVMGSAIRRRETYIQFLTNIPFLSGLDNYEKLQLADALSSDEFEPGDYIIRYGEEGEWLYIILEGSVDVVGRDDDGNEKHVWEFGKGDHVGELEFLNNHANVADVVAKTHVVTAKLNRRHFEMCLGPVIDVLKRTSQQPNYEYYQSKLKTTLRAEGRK
Experiment: biochemical
Assay type: binding
Conditions: 298 K; mean ± SD, n=3; read-out: KD in vitro binding to PKAR (ITC)
Assay Endpoint: Kd (nM)

>  <Sample Smiles>
N#Cc1cn([C@@H]2O[C@H](CO)[C@@H](O)[C@H]2O)c2ncnc(O)c12

>  <Measure Unit>
nM

>  <Observed Measurement>
8

$$$$
>  <Sample Smiles>
N#Cc1cn([C@@H]2O[C@H](CO)[C@@H](O)[C@H]2O)c2ncnc(N)c12

>  <Measure Unit>
nM

>  <Observed Measurement>
57

$$$$

----------
Molecular target: T. brucei PKA (Trypanosoma brucei brucei, UniProt Q9GU80)
Sequence (Q38DS1 entry or part of it): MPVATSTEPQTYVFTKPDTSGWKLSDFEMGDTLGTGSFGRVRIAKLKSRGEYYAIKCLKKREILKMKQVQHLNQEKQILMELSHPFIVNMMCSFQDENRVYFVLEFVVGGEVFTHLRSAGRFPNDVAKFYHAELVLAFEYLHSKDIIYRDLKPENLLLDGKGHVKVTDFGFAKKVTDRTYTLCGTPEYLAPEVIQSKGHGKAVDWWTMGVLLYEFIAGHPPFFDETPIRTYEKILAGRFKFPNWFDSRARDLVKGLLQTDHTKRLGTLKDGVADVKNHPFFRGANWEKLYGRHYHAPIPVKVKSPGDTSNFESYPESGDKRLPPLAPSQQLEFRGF
Sequence (Q38DR5 entry or part of it, further chain): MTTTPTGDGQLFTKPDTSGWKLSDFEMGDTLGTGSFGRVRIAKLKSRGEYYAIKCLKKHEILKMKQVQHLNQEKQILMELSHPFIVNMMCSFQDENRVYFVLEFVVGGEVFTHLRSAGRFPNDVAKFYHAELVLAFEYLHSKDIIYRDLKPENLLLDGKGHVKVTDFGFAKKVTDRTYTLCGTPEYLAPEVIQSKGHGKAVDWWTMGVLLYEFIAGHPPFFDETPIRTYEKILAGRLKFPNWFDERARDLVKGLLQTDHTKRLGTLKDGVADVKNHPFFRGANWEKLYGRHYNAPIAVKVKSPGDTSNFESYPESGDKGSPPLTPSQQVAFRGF
Sequence (Q9GU80 entry or part of it): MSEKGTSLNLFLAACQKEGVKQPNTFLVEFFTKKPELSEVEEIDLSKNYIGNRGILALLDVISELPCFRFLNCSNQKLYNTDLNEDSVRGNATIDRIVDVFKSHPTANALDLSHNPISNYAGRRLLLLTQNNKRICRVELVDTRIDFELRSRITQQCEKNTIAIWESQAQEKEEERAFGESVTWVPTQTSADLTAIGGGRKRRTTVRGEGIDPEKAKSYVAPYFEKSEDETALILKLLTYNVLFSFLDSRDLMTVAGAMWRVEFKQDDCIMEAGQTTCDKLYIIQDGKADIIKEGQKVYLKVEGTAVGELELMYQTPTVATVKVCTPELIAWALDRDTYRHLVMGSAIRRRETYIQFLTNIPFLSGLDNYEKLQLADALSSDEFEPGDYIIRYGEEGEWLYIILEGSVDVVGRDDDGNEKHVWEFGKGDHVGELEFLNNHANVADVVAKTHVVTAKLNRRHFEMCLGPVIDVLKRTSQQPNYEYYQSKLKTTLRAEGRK
Assay: In vivo PKA reporter assay (VASP Ser-157 phosphorylation, western blot);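 also: T. brucei cells expressing human VASP as heterologous PKA substrate, compound exposure at 37 °C, western blot of phospho (50 kDa) versus unphosphorylated (46 kDa) VASP band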
Assay type: cell-based
Settings: wild type background
Assay Endpoint: effect on in vivo PKA activity (VASP phosphorylation), in words

>  <Compound>
CC(=O)OCOP1(=O)OC[C@H]2O[C@@H](n3cnc4c(N)ncnc43)[C@H](O)[C@@H]2O1 (stereo partly shown)

>  <Observed Measurement>
No PKA activation

$$$$
>  <Compound>
Nc1nc(Cl)nc2c1ncn2[C@@H]1O[C@H](CO)[C@@H](O)[C@H]1O

>  <Observed Measurement>
no effect

$$$$
>  <Compound>
Nc1ncnc2c1nc(Br)n2[C@@H]1O[C@H](CO)[C@@H](O)[C@H]1O

>  <Observed Measurement>
no effect

$$$$
>  <Compound>
CO[C@@H]1[C@@H]2OP(=O)(O)OC[C@H]2O[C@H]1n1c(Sc2ccc(Cl)cc2)nc2c(N)ncnc21

>  <Observed Measurement>
No PKA activation

$$$$
>  <Compound>
Nc1nc2c(nc(Sc3ccc(Cl)cc3)n2[C@@H]2O[C@H](CO)[C@@H](O)[C@H]2O)c(=O)[nH]1

>  <Observed Measurement>
no effect

$$$$
>  <Compound>
Nc1ncnc2nc(Sc3ccc(Cl)cc3)[nH]c12

>  <Observed Measurement>
no effect

$$$$

----------
Tested on: T. brucei PKA holoenzyme (Ty1-PKAC1)
Assay type: biochemical, Trypanosoma brucei
Conditions: 1 mM; Supp Fig 3c; average of 3

>  <Compound>
Nc1nc2c(ncn2[C@@H]2O[C@@H]3COP(=O)(O)O[C@H]3[C@H]2O)c(=O)[nH]1 [cGMP]

>  <in vitro kinase assay [CPM], average / CPM>
18465.6

$$$$
>  <Compound>
O=c1[nH]cnc2c1ncn2[C@@H]1O[C@@H]2COP(=O)(O)O[C@H]2[C@H]1O [cIMP, inosine-3’,5’-cyclic monophosphate]

>  <in vitro kinase assay [CPM], average / CPM>
7285.53

$$$$
>  <Compound>
O=c1[nH]c(=O)c2ncn(C3OC4COP(=O)(O)OC4C3O)c2[nH]1 (stereo not shown) [cXMP, xanthosine-3’,5’-cyclic monophosphate]

>  <in vitro kinase assay [CPM], average / CPM>
6246.71

$$$$
>  <Compound>
O=c1ccn([C@@H]2O[C@@H]3COP(=O)(O)O[C@H]3[C@H]2O)c(=O)[nH]1 [cUMP, uridine -3’,5’-cyclic monophosphate]

>  <in vitro kinase assay [CPM], average / CPM>
5670.69

$$$$
